- Target system: human recombinant heparanase (h-hpa) (Homo sapiens)
- Protocol description: In vitro dimethylmethylene blue (DMB) assay for heparanase activity
Reported endpoint: IC50 (nM)
Answer format: numeric, nM implied, no suffix.

Solved entries (count: 10):
{"Compound": "CCCCCCCCCCC/C=C\\CCCCC(=O)NC1=NN(c2ccc(Oc3ccccc3)c(S(=O)(=O)O)c2)C(=O)C1 [Compound 85]", "Recorded number": 400}
{"Compound": "CCCCCCCCCCCCCCCCCC1=Nn2c(nc3cc(S(=O)(=O)O)ccc32)C1S(=O)(=O)O (centres unmarked) [Compound 35]", "Recorded number": 1340}
{"Compound": "CCCCCCCCCCCCCCCCCC(=O)Nc1ccc(C(=O)NC2=NN(c3ccc(Oc4ccccc4)c(S(=O)(=O)O)c3)C(=O)C2/N=N/c2ccc(NS(=O)(=O)c3ccc(C)cc3)cc2)cc1 (centres unmarked) [Compound 27]", "Recorded number": 270}
{"Compound": "CCCCCCCCCCCCCCCCCC1=NN(c2ccc(Oc3ccccc3)c(S(=O)(=O)O)c2)C(=O)C1/N=N/c1cccc(C(=O)O)c1 (centres unmarked) [Compound 11]", "Recorded number": 180}
{"Compound": "CCCCCCCCCCCCCCCCCCOc1ccc(C(=O)CC(=O)Nc2ccc(Oc3cccc(C(=O)O)c3)c(C(=O)O)c2)cc1 [Compound 23]", "Recorded number": 400}
{"Compound": "CCCCCCCCCCCCCCCCCCNC(=O)C1CC(=O)N(c2ccc(Oc3ccc(S(=O)(=O)O)cc3)c(S(=O)(=O)O)c2)C1 (centres unmarked) [Compound 104]", "Recorded number": 470}
{"Compound": "CCCCCCCCCCCC(=O)NC1=NN(c2ccc(Oc3ccccc3)c(S(=O)(=O)O)c2)C(=O)C1 [Compound 71]", "Recorded number": 2650}
{"Compound": "CCCCCCCCCCCCCCCCCC1=NN(c2ccc(Oc3ccccc3)c(S(=O)(=O)O)c2)C(=O)C1C(C)C (centres unmarked) [Compound 30]", "Recorded number": 160}
{"Compound": "CCCCCCCCCCCCCCCCn1c(/N=C/c2c(O)ccc3cc([N+](=O)[O-])ccc23)nc2ccccc21 [Compound 57]", "Recorded number": 7800}
{"Compound": "CCCCCCCCCCCCCCCCS(=O)(=O)c1ccc(S(=O)(=O)O)cc1C(=O)O [Compound 89]", "Recorded number": 5500}

q: Need IC50, item CCCCCCCCCCCCCCCCCCOc1ccc(C(=O)CC(=O)Nc2ccc(Sc3ccccc3C(=O)O)c(C(=O)O)c2)cc1 [Compound 44]
a: 210

q: # lookup: IC50 of CCCCCCCCCCCCCCCCCC1=NN(c2ccc(Oc3ccc(OCC)cc3)c(S(=O)(=O)O)c2)C(=O)C1 [Compound 24]
a: 630

q: # get_value(readout='IC50', item= CCCCCCCCCCCCCCCCn1c(=N)n(CC(O)c2ccc(OC)c(OC)c2)c2ccccc21 (centres unmarked) [Compound 65] )
a: 4800

q: Which IC50 value is on record for CCCCCCCCCCCCCCCCOc1ccc(/C(=N\NS(=O)(=O)c2cc(C(=O)O)cc(C(=O)O)c2)N2CCCCC2)cc1OC [Compound 76] ?
a: 3000

----------
// reported IC50 for each item listed
- Target system: human recombinant heparanase (h-hpa) (Homo sapiens, UniProt Q9Y251)
- Sequence (Q9Y251 158-543 limits assumed): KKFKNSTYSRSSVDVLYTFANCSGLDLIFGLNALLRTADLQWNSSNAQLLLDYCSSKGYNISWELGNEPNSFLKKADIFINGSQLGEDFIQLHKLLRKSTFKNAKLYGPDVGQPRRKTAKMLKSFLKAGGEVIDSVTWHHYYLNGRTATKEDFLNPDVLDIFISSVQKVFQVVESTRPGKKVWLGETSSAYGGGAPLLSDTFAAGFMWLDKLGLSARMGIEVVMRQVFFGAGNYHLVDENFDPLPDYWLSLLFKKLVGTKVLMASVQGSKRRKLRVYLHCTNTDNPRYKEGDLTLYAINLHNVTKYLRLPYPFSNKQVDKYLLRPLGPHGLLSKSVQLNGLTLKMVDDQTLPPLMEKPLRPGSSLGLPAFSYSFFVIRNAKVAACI
- Sequence (Q9Y251 36-109 limits assumed): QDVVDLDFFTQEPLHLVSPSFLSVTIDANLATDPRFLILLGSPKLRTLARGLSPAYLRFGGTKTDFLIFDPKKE
- Protocol description: In vitro dimethylmethylene blue (DMB) assay for heparanase activity
Numeric answer only, unit µM assumed.

# annotated cases, reported IC50 shown
{"Compound": "CCCCCCCCCCCCCCCCCCN(C)c1ccc(S(=O)(=O)O)cc1NC(=O)c1cc(/N=N/c2cc(NS(=O)(=O)c3ccc(C)cc3)ccc2Cl)c2ccccc2c1O [Compound 52]", "IC50, µM": 0.74}
{"Compound": "CCCCCCCCCCCCCCCCCCNCC(O)Cn1c2ccc(Br)cc2c2cc(Br)ccc21 (stereo not drawn) [Compound 91]", "IC50, µM": 15}
{"Compound": "CCCCCCCCCCCCCCCCCC1=NN(c2ccc(Oc3ccccc3)c(S(=O)(=O)O)c2)C(=O)C1/N=N/c1ccccc1N(C)C (stereo not drawn) [Compound 5]", "IC50, µM": 0.22}
{"Compound": "CCCCCCCCCCCCCCCCCC[n+]1c2cc(N(C)C)ccc2cc2ccc(N(C)C)cc21 [Compound 79]", "IC50, µM": 1.6}
{"Compound": "CCCCCCCCCCCCCCCCCCN(C)c1ccc(S(=O)(=O)O)cc1NC(=O)c1cc(/N=N/c2cc(OC)c(O)cc2Cl)c2ccccc2c1O [Compound 55]", "IC50, µM": 0.43}

Turning now to a further record.
q: Report IC50 for CCCCCCCCCCCCCCCCCCN(C)c1ccc(S(=O)(=O)O)cc1NC(=O)c1cc(/N=N/c2cc(-c3ccccc3)ccc2O)c2ccccc2c1O [Compound 34] please.
a: 0.31
